Reference source: paper PMC6072100

Assay: Skin cell toxicity assay with HaCaT (alamarBlue)
Type: cell-based, human
Conditions: human, HaCaT cells (keratinocytes), dose that kills 50% of cells; 2–100 μM, 1 h with compound then 24 h, alamarBlue; read-out: ED50 HaCaT
Square brackets hold non-standard residues; d marks the D form. Peptide text beside a SMILES is read from it. Nspe = C[C@H](NCC(=O)O)c1ccccc1; Nlys = NCCCCNCC(=O)O

Molecule	CC50 at 24 h / µM
C[C@@H](c1ccccc1)N(CC(N)=O)C(=O)CN(C(=O)CN(CCCCN)C(=O)CN(C(=O)CN(C(=O)CN(CCCCN)C(=O)CN(C(=O)CN(C(=O)CNCCCCN)[C@@H](C)c1ccccc1)[C@@H](C)c1ccccc1)[C@@H](C)c1ccccc1)[C@@H](C)c1ccccc1)[C@@H](C)c1ccccc1 [Peptoid 14, (NLysNspeNspe)3] (H-[Nlys][Nspe][Nspe][Nlys][Nspe][Nspe][Nlys][Nspe][Nspe]-NH2)	100
C[C@@H](c1ccccc1)N(CC(N)=O)C(=O)CN(C(=O)CN(CCCCN)C(=O)CN(Cc1ccc(F)cc1)C(=O)CN(Cc1ccc(F)cc1)C(=O)CN(CCCCN)C(=O)CN(C(=O)CN(C(=O)CNCCCCN)[C@@H](C)c1ccccc1)[C@@H](C)c1ccccc1)[C@@H](C)c1ccccc1	65
C[C@@H](c1ccccc1)N(CC(N)=O)C(=O)CN(C(=O)CN(CCCCN)C(=O)CN(C(=O)CN(C(=O)CN(CCCCN)C(=O)CN(C(=O)CN(C(=O)CN(CCCCN)C(=O)CN(C(=O)CN(C(=O)CNCCCCN)[C@@H](C)c1ccccc1)[C@@H](C)c1ccccc1)[C@@H](C)c1ccccc1)[C@@H](C)c1ccccc1)[C@@H](C)c1ccccc1)[C@@H](C)c1ccccc1)[C@@H](C)c1ccccc1 [Peptoid 13, (NLysNspeNspe)4] (H-[Nlys][Nspe][Nspe][Nlys][Nspe][Nspe][Nlys][Nspe][Nspe][Nlys][Nspe][Nspe]-NH2)	20
C[C@@H](c1ccccc1)N(CC(N)=O)C(=O)CN(C(=O)CN(CCN)C(=O)CN(C(=O)CN(C(=O)CN(CCN)C(=O)CN(C(=O)CN(C(=O)CNCCN)[C@@H](C)c1ccccc1)[C@@H](C)c1ccccc1)[C@@H](C)c1ccccc1)[C@@H](C)c1ccccc1)[C@@H](C)c1ccccc1	100
C[C@@H](c1ccccc1)N(CC(N)=O)C(=O)CN(Cc1ccc(F)cc1)C(=O)CN(CCCCN)C(=O)CN(C(=O)CN(Cc1ccc(F)cc1)C(=O)CN(CCCCN)C(=O)CN(C(=O)CN(Cc1ccc(F)cc1)C(=O)CNCCCCN)[C@@H](C)c1ccccc1)[C@@H](C)c1ccccc1	52
